The measured values listed here are drawn from patent US10098852B2.

assayRemarks: Cell viability analysis (WST-1), normal pulmonary epithelial cell line BEAS-2B
Type: cell-based
assayContext: human, BEAS-2B normal pulmonary epithelial cells, BEAS-2B normal cells, average of 4 tests, read-out: inhibition effect (survival rate of cells), average
parameter: viability at 72 h, 10 µM (%)
Report as a plain number; the unit % is understood.

QUERY: Which viability at 72 h, 10 µM is listed for Oc1ccc(OCc2ccccc2)cc1 ?
RESULT: 73.8

* * *

assayRemarks: Cell viability analysis (WST-1), human fibroblast cell line HFW
Assay type: cell-based
assayContext: HFW fibroblast cells (normal), test 0612-10 min, read-out: inhibition effect (survival rate of cells)
parameter: viability at 72 h, 10 µM
Kindly format the answer as number then unit.

QUERY: Which viability at 72 h, 10 µM is listed for Oc1ccc(OCc2ccccc2)cc1 ?
RESULT: 120%
